Each recorded value in this set is attributed to a melting point compilation (Tetko et al.; mined from patent text by program, amines drawn as free bases though some values may be those of a salt).

Catalogue of melting point values

// solved cases for melting point follow
>>> recorded_result("O=C1NCCN=C1c1ccc(F)cc1")
"118 to 120 °C"
>>> recorded_result("Cc1ccc2c(c1)CN(C(=O)NCCc1ccc(S(=O)(=O)NC(=O)NC3CCCCC3)cc1)C2=O")
"216 to 218 °C"
>>> recorded_result("Cc1cc2c([C@@H]3C[C@H]3CNC(=O)C3CC3)cccn2n1 (relative stereo)")
"124 to 128 °C"
>>> recorded_result("O=c1c2c(Cc3ccccc3OC(F)(F)F)n[nH]c2c2cccnc2n1-c1cccc(OC(F)(F)F)c1")
"233 to 236 °C"
>>> recorded_result("CC(C)c1ccc2c(c1)c(Sc1ccccc1)c(C(C)C(=O)O)n2Cc1ccc(Cl)cc1 (stereo not given)")
"181 to 182 °C"
>>> recorded_result("CS(=O)(=O)c1ccc(C2=C(c3ccc(-c4cscn4)cc3)C(=O)OC2)cc1F")
"218 °C"
>>> recorded_result("C#Cc1cccc(Nc2ncnc3[nH]cc(-c4ccc(Cl)cc4)c23)c1")
"225 to 227 °C"
>>> recorded_result("Cc1noc(-c2ncn3c2[C@@H]2CCCN2C(=O)c2c(Cl)cccc2-3)n1")
"230 to 231 °C"

Request: // returns reported melting point for input O=C(c1ccc2nonc2c1)N1CCOCC1
Result: 148 to 150 °C

Request: // returns reported melting point for input O=S1(=O)N=CN(C2CC2)c2c1ccc(Br)c2F
Result: 244 to 247 °C

Request: // returns reported melting point for input CC(C)(C)CC(C)(C)c1ccc(Oc2cc3nc(C(C)(C)C)oc3cc2[N+](=O)[O-])cc1
Result: 77 to 78 °C

Request: // returns reported melting point for input CC(=O)c1ccc(-c2ccc(F)cc2Br)cc1
Result: 70 to 72 °C

Request: // returns reported melting point for input COc1ccc(C=CS(=O)(=O)N2C(=O)CCC2OC(C)C)cc1 (stereo not given)
Result: 101 to 103 °C

###

Catalogue of melting point values
Unit °C implied. Number only.

// solved cases for melting point follow
>>> recorded_result("CN1CCCC(c2cccc3c2CC(=O)N3)C1 (centres undefined)")
160
>>> recorded_result("CC(=O)N1CCN(CCn2c3ccccc3c(=NN=C3NCCS3)c3ccccc32)CC1")
256
>>> recorded_result("Oc1ccc2c(c1)CCCC(c1ccccc1)=C2c1ccc(OCCCCCSCCCC(F)(F)F)cc1")
168

Lab note: next compound to report on.
Request: // returns reported melting point for input CC(C)n1cc(-c2nc(C(N)=O)c(N)nc2-c2cccc(F)c2)ccc1=O
Result: 259

###

Catalogue of melting point values

>>> recorded_result("N#CC1=C(c2ccncc2)Nc2n[nH]cc2C1c1cccc2nonc12 (stereo not given)")
"236 °C"
>>> recorded_result("NC(=O)c1cc2c(Oc3ccc(C(=O)N4CCOCC4)cc3)cncc2s1")
"> 260 °C"
>>> recorded_result("Cc1ccc(NC(=O)c2ccc(CN3C(=O)C4(COc5cc6c(cc54)CCO6)c4ccccc43)cc2)c(C)c1 (stereo not given)")
"249 to 251 °C"

Request: // returns reported melting point for input CCOC(=O)C(=O)N(CCOS(C)(=O)=O)N=Cc1ccccc1
Result: 93 to 95 °C

Request: // returns reported melting point for input Nc1nc(Cl)nc2c1ncn2C1OC(CO)C(O)C1F (stereo not given)
Result: 225 to 226 °C

###

Catalogue of melting point values

// solved cases for melting point follow
>>> recorded_result("O=C(O)CCc1cc(OCCCc2cn(-c3ccc(C(F)(F)F)cn3)nc2-c2ccccc2)nn1-c1ccccc1")
"175 to 176 °C"
>>> recorded_result("OC1(c2cccs2)CCN(CCCc2nnc3n2CCCCC3)CC1")
"162 to 163 °C"
>>> recorded_result("CC=CC(c1ccc2c(c1)nnn2C)n1ccnc1 (stereo not given)")
"104 °C"
>>> recorded_result("CN1CCN(C(=O)C(=O)Nc2cc(C#N)ccc2O)CC1")
"256 °C"
>>> recorded_result("CCOC(=O)c1cc(C)c(Cl)nc1Nc1ccccc1")
"116 to 118 °C"

Request: // returns reported melting point for input COC(=O)c1ccc(COc2ccc3cc(-c4ccc(-c5ccccc5)n4-c4ccccc4)ccc3c2)cc1
Result: 218 to 219 °C

Request: // returns reported melting point for input N#CCOc1cc2c(cc1-c1ccc(F)cc1)NC(=O)CC(c1cccc(-n3ccnc3)c1)=N2
Result: 164 °C

Request: // returns reported melting point for input CC(C)C[C@H](NC(=O)OCc1ccc(Cl)cc1)C(=O)N[C@@H](Cc1ccccc1)C(=O)CSCc1ccco1
Result: 123 to 124 °C

Request: // returns reported melting point for input COC(=O)C(C)(C)c1ccc(C(=O)CCCCl)cc1
Result: 175 to 181 °C

Request: // returns reported melting point for input CC(C)(C)c1ccc(S(=O)(=O)Nc2ccc(-c3cn(C4CCCC4)c4ncnc(N)c34)cc2O)cc1
Result: 278 to 280 °C

Request: // returns reported melting point for input CC(SC1COC(c2ccc(C(=O)Nc3ccc(C(F)(F)F)cc3)cc2)OC1)C(O)(Cn1cncn1)c1ccc(F)cc1F (stereo not given)
Result: 210 °C

Request: // returns reported melting point for input Nc1cc(O)ccc1/C=C/c1ccc(O)cc1
Result: 229 to 232 °C

###

Catalogue of melting point values

// solved cases for melting point follow
>>> recorded_result("O=c1cc(O)c2ccc(OCC(O)COc3ccccc3)cc2o1 (centres undefined)")
"145 to 175 °C"
>>> recorded_result("CC(=O)N(C1(c2ccc(OCc3ccc4ccccc4n3)cc2)CCCC1)S(=O)(=O)c1ccccc1C")
"80 °C"
>>> recorded_result("O=C(Nc1ccc(Oc2ccnc(-n3ccnc3)n2)c2ccccc12)c1cc(F)cc(N2CCCCC2)c1")
"175 to 176 °C"

Request: // returns reported melting point for input OC1(c2cccc(C(F)(F)F)c2)CCN(CCCC2(c3ccc(F)cc3F)OCCO2)CC1
Result: 90 to 93 °C

Request: // returns reported melting point for input COc1cccc(-c2ccnc3ncnn23)c1
Result: 163 to 165 °C

Request: // returns reported melting point for input O=Cc1ccc(N(CCO)CCO)cc1
Result: 63 to 64 °C

Request: // returns reported melting point for input CNC(=S)NS(=O)(=O)c1cc2c(cc1OC)OCCC2CNC(=O)c1cc(Cl)ccc1OC (single isomer, unassigned; (+))
Result: 201 °C

Request: // returns reported melting point for input CC1(c2ccccc2)OC(C=Cc2ccsc2)=CC1=O (centres undefined)
Result: 75 to 77 °C

Request: // returns reported melting point for input CCCCCNC(=O)N(C)c1cccc(-c2ccc(C=C(OC)C(=O)O)cc2)c1
Result: 144 °C

###

Catalogue of melting point values

>>> recorded_result("COc1ccc(Nc2ccc(OCc3ccccc3)cc2)c(C(=O)O)c1")
"167 to 168 °C"
>>> recorded_result("Cc1c(-c2ccc(O)cc2)n(Cc2ccc(/C=C/C(=O)N(C)C)cc2)c2ccc(O)cc12")
"278 to 280 °C"
>>> recorded_result("NS(=O)(=O)c1cc(C=O)co1")
"281 to 284 °C"
>>> recorded_result("CC12CCC3c4ccc(C(=O)O)cc4CCC3C1CCC2C(=O)C1CCCCC1 (stereo not given)")
"280 to 285 °C"
>>> recorded_result("COc1ccc(S(=O)(=O)CNC=O)cc1")
"105 to 107 °C"
>>> recorded_result("CC12CCC(C1)C1(C)Oc3ccc(C(=O)COc4ccc(C(=O)O)cc4)cc3C21C (stereo not given)")
"188 °C"
>>> recorded_result("CC(=O)n1nc(-c2cccc([N+](=O)[O-])c2)n2nc(C)cc12")
"207 to 210 °C"
>>> recorded_result("CCc1cc(C(=O)c2ccccc2Cl)c(-n2c(CNC(=O)c3cc4ccccc4[nH]3)nnc2C(C)C)s1")
"209 to 211 °C"
>>> recorded_result("COc1cc(OC)cc(N2CCN(CCC3CN(C)C(=O)O3)CC2)c1 (stereo not given)")
"85 to 87 °C"

Lab note: next compound to report on.
Request: // returns reported melting point for input CCOC(=O)c1ccc(Cc2ccc3c(c2)OCO3)o1
Result: 67 to 68 °C

###

Metric: melting point

// solved cases for melting point follow
>>> recorded_result("CCCCNC(=O)N(C)c1cccc(-c2ccc(C=C(OC)C(=O)OC)cc2)c1")
"89 °C"
>>> recorded_result("CCNC(=O)NC(=O)Nc1ccccc1")
"80 to 81.5 °C"
>>> recorded_result("CC1(C)CCc2c(N3CCSCC3)nc3sc4c(NCc5ccccn5)ncnc4c3c2C1")
"225 to 226 °C"

Request: // returns reported melting point for input Cc1cc(O)cc(Cl)c1Cl
Result: 98 to 100 °C

Request: // returns reported melting point for input CCCC(=O)Nc1n[nH]c2cc(Cl)c(-c3ccccc3)cc12
Result: 235 °C

Request: // returns reported melting point for input CCOC(=O)c1oc2c(C(=O)NCCCN3CCN(c4cc(Cl)ccc4OC)CC3)cccc2c(=O)c1C
Result: 107 to 115 °C

Request: // returns reported melting point for input COc1cc([N+](=O)[O-])c([N+](=O)[O-])cc1O
Result: 172 °C

Request: // returns reported melting point for input CC1(C)OC(=O)Nc2ccc(-c3cccc(CC#N)n3)cc21
Result: 210 to 212 °C

Request: // returns reported melting point for input Cc1nsc(OCC(F)(F)F)c1[N+](=O)[O-]
Result: 63 to 64 °C

Request: // returns reported melting point for input CCN(CC)CC(=O)Nc1cccc2c1C(=O)c1c(NC(=O)CN(CC)CC)cccc1C2=O
Result: 228 to 229 °C
